target: T1, CD71 apical domain (human, UniProt P02786 189-383, limits assumed); test: solution ELISA screen, signal ratio to HSA control
T1 construct: domain: apical domain
T1 sequence (P02786 189-383 limits assumed): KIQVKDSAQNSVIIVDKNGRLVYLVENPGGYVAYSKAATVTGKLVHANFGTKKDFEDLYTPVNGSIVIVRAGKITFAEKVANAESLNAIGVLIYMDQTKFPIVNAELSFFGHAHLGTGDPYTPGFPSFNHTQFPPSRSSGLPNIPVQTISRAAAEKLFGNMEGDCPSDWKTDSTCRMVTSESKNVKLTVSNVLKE
Assign apical domain:HSA to each entry below.
One number for each entry, in ratio.

[ask] Dear colleague, I am looking for the recorded apical domain:HSA of the following binder: SEQ ID NO 236 (designed binder, not shown: small tags and cut ends) MLPAPKNLVVSRVTEDSARLSWTAPDAAFDSFYIAYAEPRPDGEAILLQVPGSERSYDLTGLKPGTEYSVLIHGVKGGLLSSPLDAEFTT
[reply] 477

Now for another entry.
[ask] So what does the record say about apical domain:HSA for SEQ ID NO 217 (designed binder, not shown: small tags and cut ends) MLPAPKNLVVSRVTEDSARLSWTAPDAAFDSFYIAYAEPRPDGEAIILEVPGSERSYDLTGLKPGTEYSVLIHGVKGGLLSSPLRAVFTT ?
[reply] 420
